method: Oral bioavailability in dog after administration of 0.65 mg/kg of compound
Format: ADME, organism-based, Canis lupus familiaris
testConditions: in vivo
observedProperty: bioavailability

testsmiles=O=C(Cn1c(Cl)cnc(NCC(F)(F)c2ccccn2)c1=O)NCc1ncccc1F val=66%

###

method: Maximum plasma concentration in dog after administration of 0.7 mg/kg dose of compound
Type: ADME, organism-based, Canis lupus familiaris
Parameters: dose 0.7 mg/kg
observedProperty: Cmax (nM)

testsmiles=Cc1ccnc(CNC(=O)Cn2c(C)cnc(NCC(F)(F)c3ccccn3)c2=O)c1F observedproperty=Cmax val=1660

###

method: Plasma half-life (0.65 mg/kg) dog after intravenous administration
Format: ADME, organism-based, Canis lupus familiaris
observedProperty: half-life

testsmiles=O=C(Cn1c(Cl)cnc(NCC(F)(F)c2ccccn2)c1=O)NCc1ncccc1F val="4.48 h"

The reported measurements were obtained from ChEMBL document CHEMBL1145961.
